Experiment: Drug recovery in Sprague-Dawley rat feces at 10 mg/kg, po
Type: ADME, organism-based
Design: dose 10 mg/kg, route oral
Conditions: read-out: Drug recovery
READOUT NAME: dose excreted (%)
Answers are plain numbers, in %.

The cases that follow already have their dose excreted on record.
COMPOUND: CCCC[C@]1(CC)CS(=O)(=O)c2cc(CP(=O)(O)O)c(OC)cc2[C@@H](c2ccccc2)N1
READOUT NAME: dose excreted
RESULT NUMBER: 87
--
COMPOUND: CCCC[C@]1(CC)CS(=O)(=O)c2cc(OC)c(OC)cc2[C@@H](c2ccccc2)N1
READOUT NAME: dose excreted
RESULT NUMBER: 3
--
COMPOUND: CCCC[C@]1(CC)CS(=O)(=O)c2cc(CNC(CC(=O)O)CC(=O)O)c(OC)cc2[C@@H](c2ccccc2)N1 [LINERIXIBAT]
READOUT NAME: dose excreted
RESULT NUMBER: 98
--
COMPOUND: CCCC[C@]1(CC)CS(=O)(=O)c2cc(CNCCS(=O)(=O)O)c(OC)cc2[C@@H](c2ccccc2)N1
READOUT NAME: dose excreted
RESULT NUMBER: 100
--
COMPOUND: CCCC[C@]1(CC)CS(=O)(=O)c2cc(CN[C@H](CC(=O)O)C(=O)O)c(OC)cc2[C@@H](c2ccccc2)N1
READOUT NAME: dose excreted
RESULT NUMBER: 100
--
COMPOUND: CCCC[C@]1(CC)CS(=O)(=O)c2cc(CNCC(=O)O)c(OC)cc2[C@@H](c2ccccc2)N1
READOUT NAME: dose excreted
RESULT NUMBER: 92

// next item, dose excreted requested
Request the reported dose excreted associated with CCCC[C@]1(CC)CS(=O)(=O)c2cc(CN[C@@H](CO)C(=O)O)c(OC)cc2[C@@H](c2ccccc2)N1
63

----------
Test: Apparent permeability in MDCK cells expressing MDR1 at 3 uM after 60 mins by LC-MS/MS analysis
Type: ADME, cell-based, Canis lupus familiaris
Details: dog
READOUT NAME: Papp at 1 h, 3 µM (×10⁻⁶ cm/s)
Answers are plain numbers, in ×10⁻⁶ cm/s.

The cases that follow already have their Papp at 1 h, 3 µM on record.
SMILES REPR: CCCC[C@]1(CC)CS(=O)(=O)c2cc(CCCP(=O)(O)O)c(OC)cc2[C@@H](c2ccccc2)N1
Papp at 1 h, 3 µM, ×10⁻⁶ cm/s: 0.7

SMILES REPR: CCCC[C@]1(CC)CS(=O)(=O)c2cc(OCCCC(=O)O)c(OC)cc2[C@@H](c2ccccc2)N1
Papp at 1 h, 3 µM, ×10⁻⁶ cm/s: 30.3

SMILES REPR: CCCC[C@]1(CC)CS(=O)(=O)c2cc(CNC(=O)CP(=O)(O)O)c(OC)cc2[C@@H](c2ccccc2)N1
Papp at 1 h, 3 µM, ×10⁻⁶ cm/s: 0.3

// next item, Papp at 1 h, 3 µM requested
Request the reported Papp at 1 h, 3 µM associated with CCCC[C@]1(CC)CS(=O)(=O)c2cc(CN(CC(=O)O)CC(=O)O)c(OC)cc2[C@@H](c2ccccc2)N1
0.4

----------
Experiment: Half life in Sprague-Dawley rat intestine at 10 mg/kg, po
Assay type: ADME, organism-based
Design: dose 10 mg/kg, route oral
READOUT NAME: half-life

The cases that follow already have their half-life on record.
SMILES REPR: CCCC[C@]1(CC)CS(=O)(=O)c2cc(CNCC(=O)O)c(OC)cc2[C@@H](c2ccccc2)N1
half-life: > 12 h
//
SMILES REPR: CCCC[C@]1(CC)CS(=O)(=O)c2cc(CN[C@@H](CO)C(=O)O)c(OC)cc2[C@@H](c2ccccc2)N1
half-life: 8 h
//
SMILES REPR: CCCC[C@]1(CC)CS(=O)(=O)c2cc(CNC(CC(=O)O)CC(=O)O)c(OC)cc2[C@@H](c2ccccc2)N1
half-life: > 12 h
//
SMILES REPR: CCCC[C@]1(CC)CS(=O)(=O)c2cc(CNCCS(=O)(=O)O)c(OC)cc2[C@@H](c2ccccc2)N1
half-life: > 12 h

// next item, half-life requested
Request the reported half-life associated with CCCC[C@]1(CC)CS(=O)(=O)c2cc(CP(=O)(O)O)c(OC)cc2[C@@H](c2ccccc2)N1
> 12 h

----------
Test: Cmax in Sprague-Dawley rat portal vein blood at 10 mg/kg, po
Format: ADME, organism-based
Design: dose 10 mg/kg, route oral
READOUT NAME: Cmax (ng/mL)
One number for each entry, in ng/mL.

The cases that follow already have their Cmax on record.
SMILES REPR: CCCC[C@]1(CC)CS(=O)(=O)c2cc(CNC(CC(=O)O)CC(=O)O)c(OC)cc2[C@@H](c2ccccc2)N1
READOUT NAME: Cmax
RESULT NUMBER: 4
--
SMILES REPR: CCCC[C@]1(CC)CS(=O)(=O)c2cc(CN(C)CC(=O)O)c(OC)cc2[C@@H](c2ccccc2)N1
READOUT NAME: Cmax
RESULT NUMBER: 224
--
SMILES REPR: CCCC[C@]1(CC)CS(=O)(=O)c2cc(OCCS(=O)(=O)O)c(OC)cc2[C@@H](c2ccccc2)N1
READOUT NAME: Cmax
RESULT NUMBER: 220
--
SMILES REPR: CCCC[C@]1(CC)CS(=O)(=O)c2cc(CN[C@@H](CC(=O)O)C(=O)O)c(OC)cc2[C@@H](c2ccccc2)N1
READOUT NAME: Cmax
RESULT NUMBER: 93
--
SMILES REPR: CCCC[C@]1(CC)CS(=O)(=O)c2cc(CNC(=O)C(=O)O)c(OC)cc2[C@@H](c2ccccc2)N1
READOUT NAME: Cmax
RESULT NUMBER: 87
--
SMILES REPR: CCCC[C@]1(CC)CS(=O)(=O)c2cc(C(=O)NCCS(=O)(=O)O)c(OC)cc2[C@@H](c2ccccc2)N1
READOUT NAME: Cmax
RESULT NUMBER: 132

Each of the following entries comes with a recorded value; kindly state Cmax for each.
1. CCCC[C@]1(CC)CS(=O)(=O)c2cc(OCC(=O)O)c(OC)cc2[C@@H](c2ccccc2)N1
2. CCCC[C@]1(CC)CS(=O)(=O)c2cc(CNC(=O)CS(=O)(=O)O)c(OC)cc2[C@@H](c2ccccc2)N1

[1460, 122]

----------
Exercise: for every item that follows, state its recorded solubility.
Assay: Aqueous solubility of the compound
Assay type: physicochemical
Details: buffer

The cases that follow already have their solubility on record.
COMPOUND: CCCC[C@]1(CC)CS(=O)(=O)c2cc(CP(=O)(O)O)c(OC)cc2[C@@H](c2ccccc2)N1
solubility: ≥ 200 µg/mL
//
COMPOUND: CCCC[C@]1(CC)CS(=O)(=O)c2cc(CNC(CC(=O)O)CC(=O)O)c(OC)cc2[C@@H](c2ccccc2)N1 [LINERIXIBAT]
solubility: ≥ 200 µg/mL

// next item, solubility requested
Request the reported solubility associated with CCCC[C@]1(CC)CS(=O)(=O)c2cc(CNCC(=O)O)c(OC)cc2[C@@H](c2ccccc2)N1
≥ 200 µg/mL

----------
Biological target: Ileal sodium/bile acid cotransporter (Homo sapiens)
Sequence (Q12908 whole entry): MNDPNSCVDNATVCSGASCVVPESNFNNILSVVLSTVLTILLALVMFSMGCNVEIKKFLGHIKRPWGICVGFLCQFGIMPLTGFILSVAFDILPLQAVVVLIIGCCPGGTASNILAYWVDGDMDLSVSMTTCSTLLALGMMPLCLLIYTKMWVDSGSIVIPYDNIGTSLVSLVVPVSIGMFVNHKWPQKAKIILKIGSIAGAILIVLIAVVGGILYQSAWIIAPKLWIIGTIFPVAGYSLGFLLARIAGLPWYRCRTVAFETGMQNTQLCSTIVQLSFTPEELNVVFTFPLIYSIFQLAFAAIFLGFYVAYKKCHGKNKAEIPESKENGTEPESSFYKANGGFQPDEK
Experiment: Inhibition of human ASBT expressed in HEK293 cells assessed as inhibition of [3H]-taurocholate uptake after 90 mins by scintillation counting analysis
Exercise: for every item that follows, state its recorded IC50.
In your response, put the unit directly after the numeric value.

The cases that follow already have their IC50 on record.
SMILES REPR: CCCC[C@]1(CC)CS(=O)(=O)c2cc(OCCP(=O)(O)O)c(OC)cc2[C@@H](c2ccccc2)N1
TESTED TARGET: Ileal sodium/bile acid cotransporter (Homo sapiens)
IC50: 44 nM
//
SMILES REPR: CCCC[C@]1(CC)CS(=O)(=O)c2cc(OCP(=O)(O)O)c(OC)cc2[C@@H](c2ccccc2)N1
TESTED TARGET: Ileal sodium/bile acid cotransporter (Homo sapiens)
IC50: 900 nM
//
SMILES REPR: CCCC[C@]1(CC)CS(=O)(=O)c2cc(OCCS(=O)(=O)O)c(OC)cc2[C@@H](c2ccccc2)N1
TESTED TARGET: Ileal sodium/bile acid cotransporter (Homo sapiens)
IC50: 4 nM

// next item, IC50 requested
Request the reported IC50 associated with CCCC[C@]1(CC)CS(=O)(=O)c2cc(OCC(=O)O)c(OC)cc2[C@@H](c2ccccc2)N1
34 nM

----------
Test: Apparent permeability in MDCK cells expressing MDR1 at 3 uM after 60 mins by LC-MS/MS analysis
Assay type: ADME, cell-based, Canis lupus familiaris
Conditions: dog
READOUT NAME: Papp at 1 h, 3 µM (×10⁻⁶ cm/s)
Give bare numbers, in ×10⁻⁶ cm/s.

The cases that follow already have their Papp at 1 h, 3 µM on record.
SMILES REPR: CCCC[C@]1(CC)CS(=O)(=O)c2cc(C(CC(=O)O)CC(=O)O)c(OC)cc2[C@@H](c2ccccc2)N1
READOUT NAME: Papp at 1 h, 3 µM
RESULT NUMBER: 0.5
//
SMILES REPR: CCCC[C@]1(CC)CS(=O)(=O)c2cc(C(=O)NCC(C)(C)C(=O)O)c(OC)cc2[C@@H](c2ccccc2)N1
READOUT NAME: Papp at 1 h, 3 µM
RESULT NUMBER: 4.3

// next item, Papp at 1 h, 3 µM requested
Request the reported Papp at 1 h, 3 µM associated with CCCC[C@]1(CC)CS(=O)(=O)c2cc(C(=O)NCS(=O)(=O)O)c(OC)cc2[C@@H](c2ccccc2)N1
0.7
